The reported measurements were obtained from patent US8822500B2.

- experimental.target: hERG potassium channel (Homo sapiens (Human))
- Sequence (Q12809 whole entry): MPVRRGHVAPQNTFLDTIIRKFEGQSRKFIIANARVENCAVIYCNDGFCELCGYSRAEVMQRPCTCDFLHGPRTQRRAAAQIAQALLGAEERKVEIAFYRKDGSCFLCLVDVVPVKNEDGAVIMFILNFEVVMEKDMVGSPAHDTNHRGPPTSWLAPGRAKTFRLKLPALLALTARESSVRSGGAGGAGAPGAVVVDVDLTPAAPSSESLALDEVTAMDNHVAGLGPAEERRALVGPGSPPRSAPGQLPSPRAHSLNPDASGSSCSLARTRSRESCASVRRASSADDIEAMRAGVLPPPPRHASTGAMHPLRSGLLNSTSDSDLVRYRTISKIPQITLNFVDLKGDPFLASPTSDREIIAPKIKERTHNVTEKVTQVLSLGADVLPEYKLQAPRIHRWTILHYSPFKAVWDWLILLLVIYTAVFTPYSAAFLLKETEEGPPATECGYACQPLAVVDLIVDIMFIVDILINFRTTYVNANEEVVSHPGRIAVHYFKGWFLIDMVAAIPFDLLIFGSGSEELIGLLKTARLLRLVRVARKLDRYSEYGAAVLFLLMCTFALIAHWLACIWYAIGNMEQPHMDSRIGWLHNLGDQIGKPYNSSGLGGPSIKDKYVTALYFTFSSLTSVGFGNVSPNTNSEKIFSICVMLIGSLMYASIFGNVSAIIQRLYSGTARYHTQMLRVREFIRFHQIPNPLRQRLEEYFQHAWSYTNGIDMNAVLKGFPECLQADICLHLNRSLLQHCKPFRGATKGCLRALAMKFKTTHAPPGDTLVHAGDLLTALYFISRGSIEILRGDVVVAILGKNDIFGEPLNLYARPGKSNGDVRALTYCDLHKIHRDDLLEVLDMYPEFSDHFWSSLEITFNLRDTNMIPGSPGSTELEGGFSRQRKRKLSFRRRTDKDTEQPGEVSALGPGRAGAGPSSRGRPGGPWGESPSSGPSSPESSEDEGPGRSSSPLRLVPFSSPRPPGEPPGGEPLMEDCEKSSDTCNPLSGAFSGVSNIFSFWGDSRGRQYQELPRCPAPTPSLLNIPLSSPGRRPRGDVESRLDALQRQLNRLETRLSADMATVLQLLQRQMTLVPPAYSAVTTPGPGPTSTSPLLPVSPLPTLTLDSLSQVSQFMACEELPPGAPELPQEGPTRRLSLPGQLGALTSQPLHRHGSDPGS
- protocol.text: hERG potassium channel current, automated patch clamp (PatchXpress 7000A);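 note: Four-point series of 0.3, 3, 10 and 30 µM, two cells recorded per concentration, 5 min exposure at each level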
- measurement.conditions: human, Mean % hERG Inhibition, 30 μM (low solubility at this concentration)
endpoint: inhibition at 5 min, 30 µM (%)
Express it in %; write the number only.

Output measured inhibition at 5 min, 30 µM for this item: C[C@@H](Cc1c(F)c(F)cc(F)c1F)Nc1cc[nH]c(=O)c1-c1nc2cc3c(cc2[nH]1)CN(CCN(C)C)C3=O
66.9

###

- experimental.target: TrkB (Homo sapiens (Human), UniProt Q16620)
- Sequence (Q16620 32-822): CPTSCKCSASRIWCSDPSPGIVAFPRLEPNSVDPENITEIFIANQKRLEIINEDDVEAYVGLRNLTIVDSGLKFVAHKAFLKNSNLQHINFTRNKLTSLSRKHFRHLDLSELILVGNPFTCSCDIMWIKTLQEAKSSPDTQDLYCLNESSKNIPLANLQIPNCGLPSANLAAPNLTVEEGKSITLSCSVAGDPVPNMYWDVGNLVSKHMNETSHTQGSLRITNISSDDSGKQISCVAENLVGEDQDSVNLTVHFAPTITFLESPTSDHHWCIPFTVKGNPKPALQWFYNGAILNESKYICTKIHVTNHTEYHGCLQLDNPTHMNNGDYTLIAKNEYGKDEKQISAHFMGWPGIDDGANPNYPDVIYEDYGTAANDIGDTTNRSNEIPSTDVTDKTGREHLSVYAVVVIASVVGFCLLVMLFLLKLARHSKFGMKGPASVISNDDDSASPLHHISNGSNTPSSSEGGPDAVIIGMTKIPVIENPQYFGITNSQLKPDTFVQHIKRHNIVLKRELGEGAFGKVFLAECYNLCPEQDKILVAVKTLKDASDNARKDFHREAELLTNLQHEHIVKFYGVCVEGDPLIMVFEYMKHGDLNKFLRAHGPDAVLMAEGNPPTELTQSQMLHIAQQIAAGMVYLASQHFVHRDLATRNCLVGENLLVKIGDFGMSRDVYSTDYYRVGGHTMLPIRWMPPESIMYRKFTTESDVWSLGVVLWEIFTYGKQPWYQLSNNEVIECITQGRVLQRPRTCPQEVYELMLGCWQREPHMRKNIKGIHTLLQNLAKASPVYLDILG
- protocol.text: In vitro kinase activity assay (LANCE TR-FRET)
- Type: biochemical
- measurement.conditions: read-out: GTx-TrKB IC50
endpoint: IC50 (nM)
Kindly answer with a numeric value in nM, unit omitted.

Find the measured IC50 of Cc1ccc(F)cc1CC(C)Nc1cc[nH]c(=O)c1-c1nc2cc3c(cc2[nH]1)CN(C)C3=O (stereo not shown) and report it.
4
